// data source = ChEMBL document CHEMBL3045116

# Tested on: Human alphaherpesvirus 1
# PROCEDURE_DETAILS: Antiviral activity against acyclovir-resistant thymidine kinase negative Human herpesvirus 1 strain KOS infected human HEL cells assessed as reduction of virus-induced cytopathic effect after 3 days by colorimetric formazan-based MTS assay
# Assay type: functional, organism-based
# CONDITION: Human alphaherpesvirus 1, KOS, 72 h
Listing of entries alongside the reported EC50.
ASSAY_ENDPOINT: EC50

COMPOUND	DATA_VALUE
O=c1[nH]c(=O)n([C@H]2C[C@H](O)[C@@H](CO)O2)cc1/C=C/Br [BRIVUDINE]	> 250 µM
CCN(CC)CN1C(=O)/C(=N/NC(=S)Nc2ccc(OC)cc2)c2ccccc21	> 20 µM
CCN(CC)CN1C(=O)/C(=N/NC(=S)Nc2ccc(Cl)cc2)c2cc(Cl)ccc21	> 20 µM
CCN(CC)CN1C(=O)/C(=N/NC(N)=S)c2ccccc21	> 100 µM
CCN(CC)CN1C(=O)/C(=N/NC(=S)Nc2ccc(Cl)cc2)c2ccccc21	≥ 20 µM
CCN(CC)CN1C(=O)/C(=N/NC(=S)Nc2ccc(OC)cc2)c2cc(Cl)ccc21	> 20 µM
CCN(CC)CN1C(=O)/C(=N/NC(=S)Nc2ccc(C)cc2)c2cc(Cl)ccc21	> 20 µM
CCN(CC)CN1C(=O)/C(=N/NC(=S)Nc2ccccc2)c2ccccc21	> 100 µM

* * *

# PROCEDURE_DETAILS: Cytotoxicity against Homo sapiens (human) HeLa cells assessed as change in cellular morphology
# Type: cell-based
# CONDITION: HeLa cells
ASSAY_ENDPOINT: CC50

COMPOUND_STRUCTURE	DATA_VALUE
NC(=O)c1ncn([C@@H]2O[C@H](CO)[C@@H](O)[C@H]2O)n1	> 250 µM

* * *

# Tested on: Coxsackievirus B4
# PROCEDURE_DETAILS: Antiviral activity against Human coxsackievirus B4 infected African green monkey Vero cells assessed as reduction of virus-induced cytopathic effect after 3 days by colorimetric formazan-based MTS assay
# Assay type: functional, organism-based
# CONDITION: Enterovirus B, 72 h
Listing of entries alongside the reported EC50.
ASSAY_ENDPOINT: EC50

COMPOUND_STRUCTURE	DATA_VALUE
CCN(CC)CN1C(=O)/C(=N/NC(=S)Nc2ccc(OC)cc2)c2cc(Cl)ccc21	> 0.8 µM
CCN(CC)CN1C(=O)/C(=N/NC(=S)Nc2ccc(Cl)cc2)c2cc(Cl)ccc21	> 20 µM
CCN(CC)CN1C(=O)/C(=N/NC(=S)Nc2ccc(OC)cc2)c2ccccc21	> 0.8 µM
CCN(CC)CN1C(=O)/C(=N/NC(=S)Nc2ccc(C)cc2)c2ccccc21	> 20 µM
CCN(CC)CN1C(=O)/C(=N/NC(=S)Nc2ccc(C)cc2)c2cc(Cl)ccc21	> 4 µM

* * *

# PROCEDURE_DETAILS: Cytotoxicity against Homo sapiens (human) HeLa cells assessed as change in cellular morphology
# Type: cell-based
# CONDITION: HeLa cells

MOLECULE	MCC
NC(=O)c1ncn([C@@H]2O[C@H](CO)[C@@H](O)[C@H]2O)n1	> 250 µM
CCN(CC)CN1C(=O)/C(=N/NC(N)=S)c2ccccc21	> 100 µM
Nc1ncnc2c1ncn2C[C@H](O)CO [(S)-DHPA]	> 250 µM
CCN(CC)CN1C(=O)/C(=N/NC(=S)Nc2ccc(OC)cc2)c2ccccc21	≥ 4 µM
CCN(CC)CN1C(=O)/C(=N/NC(=S)Nc2ccc(C)cc2)c2cc(Cl)ccc21	≥ 4 µM
CCN(CC)CN1C(=O)/C(=N/NC(=S)Nc2ccc(Cl)cc2)c2cc(Cl)ccc21	100 µM
CCN(CC)CN1C(=O)/C(=N/NC(N)=S)c2cc(Cl)ccc21	> 100 µM
